protocol.notes: Half life in iv dosed rat
Assay type: ADME, organism-based
condition.notes: in vivo
property: half-life

- CC[C@H](CO)Nc1nc(SCc2ccccc2)nc2nc(N)sc12: 1 h
- CC(C)(CO)Nc1nc(SCc2cccc(F)c2F)nc2nc(N)sc12: 1.2 h
- Nc1nc2nc(SCc3cccc(F)c3F)[nH]c(=O)c2s1: 3.5 h

---

protocol.notes: Volume of distribution in iv dosed rat
Format: ADME, organism-based
condition.notes: in vivo, read-out: Vdss
property: Vd

- CC(C)(CO)Nc1nc(SCc2cccc(F)c2F)nc2nc(N)sc12: 1.9 L/kg
- Nc1nc2nc(SCc3cccc(F)c3F)[nH]c(=O)c2s1: 0.9 L/kg
- CC[C@H](CO)Nc1nc(SCc2ccccc2)nc2nc(N)sc12: 2.2 L/kg

---

protocol.notes: Clearance in iv dosed rat
Type: ADME, organism-based
condition.notes: in vivo
clearance reference
property: clearance (mL/min/kg)

• Nc1nc2nc(SCc3cccc(F)c3F)[nH]c(=O)c2s1 = 9.5
• CC(C)(CO)Nc1nc(SCc2cccc(F)c2F)nc2nc(N)sc12 = 25
• CC[C@H](CO)Nc1nc(SCc2ccccc2)nc2nc(N)sc12 = 40

---

protocol.notes: Oral bioavailability in rat
Type: ADME, organism-based
condition.notes: in vivo
property: bioavailability (%)

• CC(C)(CO)Nc1nc(SCc2cccc(F)c2F)nc2nc(N)sc12 = 15

---

test.target: C-X-C chemokine receptor type 2 (Homo sapiens)
Sequence (P25025 whole entry): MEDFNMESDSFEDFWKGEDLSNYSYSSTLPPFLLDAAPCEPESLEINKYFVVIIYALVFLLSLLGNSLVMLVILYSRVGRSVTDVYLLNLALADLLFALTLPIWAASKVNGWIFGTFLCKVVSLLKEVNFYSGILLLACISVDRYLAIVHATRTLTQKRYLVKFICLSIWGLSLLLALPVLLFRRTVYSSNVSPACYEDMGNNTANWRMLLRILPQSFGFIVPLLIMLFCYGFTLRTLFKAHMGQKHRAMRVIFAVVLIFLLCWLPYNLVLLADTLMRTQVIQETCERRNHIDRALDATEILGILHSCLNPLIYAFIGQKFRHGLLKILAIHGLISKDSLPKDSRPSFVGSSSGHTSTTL
protocol.notes: Displacement of [125I]IL8 from human recombinant CXCR2 expressed in HEK293 membranes by SPA
Criterion: IC50 strictly under 400 nM. Met: MET. Not met: NOT MET.

• CC(C)(CO)Nc1nc(SCc2cccc(Oc3ccccc3)c2)nc2nc(N)sc12 = MET
• Nc1nc2nc(SCc3cccc(F)c3F)[nH]c(=O)c2s1 = MET
• CC[C@@H](CO)Nc1nc(SCc2cccc(Oc3ccccc3)c2)nc2nc(N)sc12 = NOT MET
• Nc1nc2nc(SCc3ccccc3)nc(N)c2s1 = NOT MET
• Nc1nc2nc(SCc3cccc(Oc4ccccc4)c3)[nH]c(=O)c2s1 = NOT MET
• CC[C@@H](CO)Nc1nc(SCc2ccccc2)nc2nc(N)sc12 = NOT MET
• Nc1nc2nc(SCc3ccccc3)[nH]c(=O)c2s1 = NOT MET
• CC(C)(CO)Nc1nc(SCc2cccc(F)c2F)nc2nc(N)sc12 = MET
• CCCCCSc1nc(NCCO)c2sc(N)nc2n1 = NOT MET
• CCCCCSc1nc(O)c2sc(N)nc2n1 = NOT MET
• CC[C@H](CO)Nc1nc(SCc2ccccc2)nc2nc(N)sc12 = MET
• CC[C@H](CO)Nc1nc(SCc2cccc(F)c2F)nc2nc(N)sc12 = MET
• CC[C@H](CO)Nc1nc(SCc2cccc(Oc3ccccc3)c2)nc2nc(N)sc12 = MET
• CCCCCSc1nc2ncsc2c(=O)[nH]1 = NOT MET

Provenance of the data: ChEMBL document CHEMBL1149469
